# target desc: human olfactory receptor OR1A1 (Homo sapiens, UniProt Q9P1Q5)
# Sequence (Q9P1Q5 whole entry): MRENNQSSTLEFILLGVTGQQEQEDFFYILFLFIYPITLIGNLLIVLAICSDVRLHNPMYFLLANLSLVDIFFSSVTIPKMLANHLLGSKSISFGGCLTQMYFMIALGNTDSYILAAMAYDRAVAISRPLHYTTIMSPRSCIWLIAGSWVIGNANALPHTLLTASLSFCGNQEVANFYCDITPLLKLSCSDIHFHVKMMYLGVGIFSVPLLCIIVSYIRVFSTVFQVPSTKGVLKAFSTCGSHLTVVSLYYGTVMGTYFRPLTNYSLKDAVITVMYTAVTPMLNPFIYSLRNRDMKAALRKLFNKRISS
# measurement protocol: Dual-Glo luciferase assay of olfactory receptor activation (agonist dose-response)
# measurement setup: OR1A1 response; best-fit value with 95% confidence interval; EC50 = ligand concentration for half-maximal response
pEC50: −log10 of the molar value.

{"molecule": "CC(=O)c1cccc(C#CC#CC(C)(C)C)c1", "pEC50": 4.45}
{"molecule": "CC(C)(C)c1ccc(C#CC#CCO)cc1", "pEC50": 4.37}
{"molecule": "CC(=O)c1ccc(C#CC#CC(C)(C)C)cc1", "pEC50": 4.44}
{"molecule": "C[C@H](O)C#CC#Cc1ccc(C(C)(C)C)cc1 [(S)-21]", "pEC50": 4.62}
{"molecule": "CC(O)C#CC#Cc1ccc(C(C)(C)C)cc1 (centres unmarked)", "pEC50": 4.36}

Values compiled from paper PMC12207589.
